# System tested: T1, rat VPAC2 receptor (rat, UniProt P35000 23-437)
# T1 sequence (looked up): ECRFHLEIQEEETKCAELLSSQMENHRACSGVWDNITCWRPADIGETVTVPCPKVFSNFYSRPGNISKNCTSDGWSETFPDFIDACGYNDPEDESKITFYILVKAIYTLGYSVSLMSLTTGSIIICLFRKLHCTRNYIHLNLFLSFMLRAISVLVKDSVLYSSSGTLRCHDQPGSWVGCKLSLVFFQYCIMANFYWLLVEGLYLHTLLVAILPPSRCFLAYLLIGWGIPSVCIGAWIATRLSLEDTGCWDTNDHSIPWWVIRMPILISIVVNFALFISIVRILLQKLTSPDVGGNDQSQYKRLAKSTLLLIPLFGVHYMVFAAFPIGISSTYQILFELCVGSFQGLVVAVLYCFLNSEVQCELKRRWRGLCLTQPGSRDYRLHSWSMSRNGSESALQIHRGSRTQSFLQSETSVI
# Assay method text: cell-based or functional assay
Where no end group is shown, it is not given here. [ ]: non-standard residue; d: D form. The star is where a group is joined. Hexanoyl = CCCCCC(=O)*; Aib = CC(C)(N)C(=O)O
Reported EC50 cAMP, DiscoveRx values for a set of binders
Answer format: number, then unit.

Worked set:
>>> df
                                     binder          measure_name  measurement
0  Hexanoyl-HSDAVFTDNYTRLR[Aib]QVAA[Aib]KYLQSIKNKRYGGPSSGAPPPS (ends and bridges not checked) [P261]  EC50 cAMP, DiscoveRx      0.04 nM
1  HSDAVFTDNYTXLRXQVAAXKYLQSIXNXXYGGPSSGAPPPS (N-terminal hexanoyl (C6); hR at 12, 27, 29, 30; Aib at 15, 20) [P338]  EC50 cAMP, DiscoveRx      0.07 nM
2  Hexanoyl-HSDAVFTDNYTRLRKQVAAQKYLQSIKNKRYGGPSSGAPPPS [P150]  EC50 cAMP, DiscoveRx       0.1 nM

Request: Quick one: EC50 cAMP, DiscoveRx of Hexanoyl-HSDAVFTDNYTRL[Aib]KQVAAKKYLQSIKNKRYGGPSSGAPPPS (ends and bridges not checked) [P167] ?
Result: 0.24 nM

Request: Quick one: EC50 cAMP, DiscoveRx of Hexanoyl-HSDAVFTDNYTRLRKQVAAK[Aib]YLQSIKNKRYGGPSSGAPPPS (ends and bridges not checked) [P170] ?
Result: 0.15 nM

Request: Quick one: EC50 cAMP, DiscoveRx of HSDAVFTDNYTXLRXQVAAXKYLQSIXNXGGPSSGAPPPS (N-terminal hexanoyl (C6); Orn at 12, 27, 29; Aib at 15, 20) [P326] ?
Result: 0.09 nM

Request: Quick one: EC50 cAMP, DiscoveRx of Hexanoyl-HSDAVFTDNYTRL[Aib]KQVAAQKYLQSIKNKRYGGPSSGAPPPS (ends and bridges not checked) [P243] ?
Result: 0.79 nM

Request: Quick one: EC50 cAMP, DiscoveRx of Hexanoyl-HSDAVFTDNYTRL[Aib]KQVAAK[Aib]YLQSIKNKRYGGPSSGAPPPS (ends and bridges not checked) [P244] ?
Result: 1.85 nM

Request: Quick one: EC50 cAMP, DiscoveRx of HSDAVFTDNYTRLRXQVAAXKYLQSIXXGGPSSGAPPPS (N-terminal hexanoyl (C6); Aib at 15, 20; Orn at 27, 28) [P352] ?
Result: 0.09 nM

Request: Quick one: EC50 cAMP, DiscoveRx of Hexanoyl-HSDAVFTDNYTRL[Aib]KQLAA[Aib]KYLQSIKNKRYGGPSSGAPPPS (ends and bridges not checked) [P240] ?
Result: 0.36 nM
